Tested on: MS2 coat protein
Assay: apparent KD of MS2 coat protein, switch ON state; designed switch direction (-1 OFF switch, 1 ON switch): 1; higher = weaker reporter binding
Details: FMN input: 0 or 200 uM; Eterna round: R93 (includes R88 designs)
# reported apparent KD of MS2 coat protein; entries follow

query_sequence	apparent KD of MS2 coat protein, nM
AAAGAAAAACUAGAGGAUAUCCGAGUGGUAACAUGAGGAUCACCCAUGUGAAGAAAGGAGCGUGAGGAGAAGGCUAGAAGAAAAA [JL Nando mod 24]	11
AGAAAUAAAAUGGAGGAUAUCCAAAAGAAAACAUGAGGAUCACCCAUGUAAAAGAAAAUAAAAUGGGAGAAGGCCAAAAAUAAAG	23
AAAAAACAUGAGGAUCACCCAUGUAAUAAAACGUCAGGAUAUUGAUUUUAUUAUUUAUUGCGAGAAGGGACAAAAA [Same State 1 - Omei 3]	20.2
GGGAGACAUGAGGAUCACCCAUGUGAGAAGAGGCGAGGAUAUCGAAAGAAAGAAGAGAAACGAGAAGGCGCGAGGG [salish99-SS1-059]	57.4
AGAAAAUAUGGGUAGGAUAUAUAAAGAGAAACAUGAGGAUCACCCAUGUAAAGACGAGAGUCAAAAUAGAAGGACUAAAGAAAGAA [Meechl MS2 SS2 2]	86.2
GAAAAACAUGAGGAUCACCCAUGUAGAGAUAUGGGAGGAUAUACGAAGACGAAAGUCGAGGUAGAAGGCCUAAAAG [Garnet 56]	27.7
GUAGAACAUGAGGAUCACCCAUGUGAAGACGCAUGAGGAUAUAUCCGUACAUAGCAUACGAUAGAAGGCAUGAUAA [JR_SS001_Sub1704]	29.6
AAAAGACAUGAGGAUCACCCAUGUCAAAACGUAGGAGGAUAUGUCGUGAAAAAAGACUUGGCAGAAGGCCUGUGUC [SS1 - 42]	15.4
GAAAAACAUGAGGAUCACCCAUGUAGAAAUAUGGGAGGAUAUACAAAGUGGAAAGACAAAGUAGAAGGCCUAAAAG [Garnet 25]	35.6
GAAAAACAUGAGGAUCACCCAUGUGGAAAUAUGGGAGGAUAUACAAAGACGUAAGUCAAAGUAGAAGGCCUAAAAG [Garnet 94]	30.8
AGGAGACAUGAGGAUCACCCAUGUGAGAAGAGGCGAGGAUAUCGAAAGAAAGAAGAGAAACGAGAAGGCGCGAGUU [salish99-SS1-022]	25.5
AGGAAACAUGAGGAUCACCCAUGUAAAAAUAUGGAAGGAUAUGGAAACACGAAAGUGAAACCAGAAGGUCCGAAAA [77%, Mat - Mod of Eli, 19]	13.1
UAAAAACAUGAGGAUCACCCAUGUGAGAACAUGGGAGGAUAUACAAGGACGAAAGUCAAAGUAGAAGGCCUAAAAU [Mat - Same State 1 - Mod - D176]	99.8
AUAAAAUAAAAUGAGGAUAUCUAUAAUAAAACAUGAGGAUCACCCAUGUUUAAACAAAGAUCAUGGGAGAAGGCAUAAAAUAAAU [SS2 M 40]	15.9
CGGGCCCGGGCGCAGGAUAUCUGAAAAAAAACAUGAGGAUCACCCAUGUGUGGGAAAAAAAAAAAAGAGAAGGGCGCCCGGGCCC [Natural State 2 -38.15 -4 kcal]	29.4
CGCAAACAUGAGGAUCACCCAUGUCAAUGUGGUCAAGGAUAUGGGUUCCUAAAUGGAACACCAGAAGGUGAAAAGA [Anesatve]	20
AAUAUAUUAUUUAAGGAUAUCAUAGGAAACACAUGAGGAUCACCCAUGUGGGAGACUUGGACGGGUGAGAAGGUGGAUAAUAUAU [Samwise Clockwise 37 - Jieux - Same State 2]	19.2
AAAAAAAAAGUAGAGGAUAUCCGAGUGGUAACAUGAGGAUCACCCAUGUGAAGAAAGGAAGAUGAGGAGAAGGCUACAAAAAAAAA [Mat - Mod of Nando]	21.2
GAGAAACAUGAGGAUCACCCAUGUAGAAAUAUGGGAGGAUAUACAAAGACGAGAGUCAAAGUAGAAGGCCUAGAAG [77%, Mat - Mod of Eli - With 3 more G's]	18.8
AACGUGACGACAUAGGAUAUGUACACACGUACAUGAGGAUCACCCAUGUGACUAGUAAUCGUGUGGCAGAAGGGUGAAGUCUCGA [Anzasousra]	21.4
AUAACACAUGAGGAUCACCCAUGUAGAAAUAAGGGAGGAUAUACAAAGACGAAAGUCAAAGUAGAAGGCUCAAAAG [76%, Meechl 4]	14.8
AUAUAUAUAAGACAGGAUAUCCGAAAGUAAACAUGAGGAUCACCCAUGUAAAGAAAGAAACUCAUGGAGAAGGGUCAAUAUAUAU [Mat - Same State 2 - Tesla mod - D84]	22.4
AGGAAACAUGAGGAUCACCCAUGUAGAAAUAUGGGAGGAUAUCGGAAUAAAAUAAAGAAACGAGAAGGCCUAAAAG [59%, Flamingo, 3]	38.8
CAUCAUGCGCCUAAGGAUAUGUCUCACAAGACAUGAGGAUCACCCAUGUAGACAAAAUAAGCGAUGCAGAAGGUGGAGCGCAUGC [Rasoer]	83.1

====

# reported apparent KD of K4 kissing-loop reporter; entries follow
Tested on: K4 kissing-loop RNA reporter
Assay: apparent KD of K4 kissing-loop reporter; higher = weaker reporter binding
Conditions: Eterna round: R107; input ligand: theophylline 20 uM
parameter_measured: apparent KD of K4 kissing-loop reporter (nM)

query_sequence	parameter_measured	output_unit	recorded_measurement
AAUAAGGUCGCCGAUACCAGCGCAGGCAGAGCAAAGCUCUGCCUGGUAGUGAUGUUACCGCGCCCUUGGCAGCGGUGGCACGACC [Omei KL Theo B SS C v5]	apparent KD of K4 kissing-loop reporter	nM	71.7
CCUAUCUCAUACGAUACCAGUGAUUAACCAGUGAUGUUGGAAUAACCAAGGAAUAUUUUUCACCCUUGGCAGCGUAUGGGAUAGG [Ex Theophylline B K4 26]	apparent KD of K4 kissing-loop reporter	nM	61.9
CGAGUCCUGAGGAGUGAUGUUCCUCGGCCACGAGGACCGGUACGGCCGCCACUCGUUACUCGAGCUUAGUAGCUAGCACUAAGCC [Zaussora]	apparent KD of K4 kissing-loop reporter	nM	186

====

Tested on: K4 kissing-loop RNA reporter;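 also: bound reporter read as fluorescence of individual clusters on recovered sequencing chips by microscopy, with normalized cluster intensities fitted with a binding model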
Test: apparent KD of K4 kissing-loop reporter; higher = weaker reporter binding
Conditions: Eterna round: R107; input ligand: none

query_sequence	assay_system	apparent KD of K4 kissing-loop reporter [nM]
GCUAGGCAUGCAGGAUAUCGCCGAGUGAUGUUCGGUAGGCCGCUUUCUUUCUUUCUUUGCGGCCAGCGAGAAGGGCAUGCCUAGC	K4 kissing-loop RNA reporter	108
GAGAUAGAGGCGGCCGCCACUAGUGAUGUUAGUGAUGUUAGAUAGAGAAUAUAACAGGGAUUAGAUAGGACCGGGCCAGAUGGAG ['lljullin]	K4 kissing-loop RNA reporter	130
UCCUACGAGGUAACGUGGAUAUCUCGUUGCAAGGAUAUCUGGAAACAGAGAAGGUGCUACAUUAUCGGCAGUGAUGUUGCUGACC	K4 kissing-loop RNA reporter	1010
GAGGGCCCUGUAGGAUAUGAGUCUAGUGAUGUUAGGCGGUCCAUGCGCGUGGCGCGUUAUGCCCUUUUAGAAGGACAGGGCUCUC [#2 Exclusion - FMN B Attempt #21 (HarryS)]	K4 kissing-loop RNA reporter	82.4
AAACCAAUCAGAGGAUAUUCUUUAUUCGACAUAAAUUUCUAUAAAUUGCAGUGAUGUUGCAAUAUAGGAGAAGGCUGAUUGACAA [Exclusion FMN B Gf 12]	K4 kissing-loop RNA reporter	204
UAUAAGCGCAGAGGAUAUACUAGCUUUCACUAGUGCAGUGAUGUUGCACUAGACCAGCUGUACAUAGUAGAAGGCUGCGUUCCUU [FMN B SS t1]	K4 kissing-loop RNA reporter	112

====

Tested on: MS2 coat protein
Assay: apparent KD of MS2 coat protein; designed switch direction (-1 OFF switch, 1 ON switch): 1; higher = weaker reporter binding
Conditions: input ligand: none

query_sequence	apparent KD of MS2 coat protein
UUAAAGAAGUAAGGAUAUACAUGAGGAUCACUCGUAGAAGGUACUAAACAUGAGGAUCACCCAUGUACCGGUCCGUAGACUGGA [Mat - Same State NG 1 - JL mod - D2] (Eterna round: R96, puzzle: Same State NG 1)	483 nM
UUUCUCAUGUAAGGAUAUGCAGCCGUUUCGGCUGCAGAAGGUACUAUAAUACAUGAGGAUCACCCAUGUCUCUAUUAUUUAGUU [JL SSNG1 1.44] (Eterna round: R96, puzzle: Same State NG 1)	47.1 nM
UGGCUCAGAGCAGGAUAUACGUGGUCACAUGAGGAUCACCCAUGUCUCGAGCUUCGGCUCGAGGCGUAGAAGGGCUCUGAGCCU [SSNG2/6-B3] (Eterna round: R96, puzzle: Same State NG 2)	258 nM
AACAGUCGGCGAGGAUAUGGACGUACGGACUAACCCAUACGGCUCACAUGAGGAUCACCCAUGUUCUAGAAGGCGCCACUGAAA [Soisce] (Eterna round: R96, puzzle: Same State NG 2)	66.7 nM
UAGGCUGGUACAGGAUAUGCCGUAUUUUAGUCGGCAGAAGGGUGCUCACAUGAGGAUCACCCAUGUAUACAGCCAGAUCAUGUU [MOD JMF Solution 2] (Eterna round: R96, puzzle: Same State NG 1)	43.2 nM
